# MEASURED TARGET: human kinase Mps-1 (Homo sapiens)
# Construct: N-terminally GST-tagged human full length recombinant Mps-1 kinase; GST (N)
# Sequence (P33981 1-857): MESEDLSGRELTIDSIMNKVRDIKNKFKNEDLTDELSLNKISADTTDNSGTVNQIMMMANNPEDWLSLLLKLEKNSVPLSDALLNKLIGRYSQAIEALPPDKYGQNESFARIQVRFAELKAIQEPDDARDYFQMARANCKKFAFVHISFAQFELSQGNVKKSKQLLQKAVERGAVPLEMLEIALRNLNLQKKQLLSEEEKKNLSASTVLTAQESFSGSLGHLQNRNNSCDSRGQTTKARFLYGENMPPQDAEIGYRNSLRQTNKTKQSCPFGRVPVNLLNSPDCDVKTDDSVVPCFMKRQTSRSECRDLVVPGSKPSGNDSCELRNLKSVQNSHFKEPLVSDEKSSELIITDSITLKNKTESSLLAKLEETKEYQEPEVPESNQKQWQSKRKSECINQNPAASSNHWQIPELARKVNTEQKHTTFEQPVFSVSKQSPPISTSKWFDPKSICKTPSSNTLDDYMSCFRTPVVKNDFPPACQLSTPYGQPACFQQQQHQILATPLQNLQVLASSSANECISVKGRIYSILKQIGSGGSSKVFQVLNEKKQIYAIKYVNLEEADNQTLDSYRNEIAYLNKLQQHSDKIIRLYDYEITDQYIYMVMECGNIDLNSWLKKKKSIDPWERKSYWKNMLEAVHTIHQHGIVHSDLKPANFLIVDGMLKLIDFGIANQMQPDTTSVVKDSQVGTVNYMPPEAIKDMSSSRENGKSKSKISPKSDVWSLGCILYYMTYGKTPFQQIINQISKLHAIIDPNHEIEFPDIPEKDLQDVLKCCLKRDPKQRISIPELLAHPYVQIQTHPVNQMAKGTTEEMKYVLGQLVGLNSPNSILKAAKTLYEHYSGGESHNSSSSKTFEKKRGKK
# TEST: Mps-1 kinase assay (TR-FRET)
# CONDITION PARAMETERS: Mps-1 TR-FRET kinase assay; avg; read-out: Mps1 avg (IC50 [mol/l])
pIC50: −log10 of the molar value.
MEASURED QUANTITY: pIC50

See these solved cases before continuing.
COMPOUND | VALUE REPORTED
Cc1nsc(Nc2ccc(C#N)cn2)c1C(=O)Nc1cccc(S(C)(=O)=O)c1 [Example 150] | < 4.70
Cc1nsc(Nc2cnc3ccccc3n2)c1C(=O)Nc1cccc(NS(=O)(=O)C2CN(CCC(F)(F)F)C2)c1 [Example 288] | < 4.70
Cc1nsc(Nc2cnc(C(F)(F)F)cn2)c1C(=O)Nc1ccc(F)c(OCCCNCC(F)(F)F)c1 [Example 306] | ≤ 4.70
Cc1nsc(Nc2cncc(C(F)(F)F)n2)c1C(=O)Nc1ccc(OC2CCN(CCC(F)(F)F)CC2)nc1 [Example 304] | < 4.70

### Prompt Which pIC50 value belongs to Cc1nsc(Nc2cc(C#N)ccn2)c1C(=O)Nc1ccc(OCCCN)nc1 [Example 44] ?
### Response ≤ 4.70

### Prompt I am curious: what pIC50 value has been reported for Cc1nsc(Nc2cnc(C(F)(F)F)cn2)c1C(=O)Nc1ccc(OC2CCNCC2)nc1 [Example 6] ?
### Response ≤ 4.70

### Prompt # input compound: Cc1nsc(Nc2cnc(C(F)(F)F)cn2)c1C(=O)Nc1ccc(OC[C@H]2CCN(CC(F)(F)F)C2)nc1 [Example 404] ; wanted: its pIC50
### Response < 4.70

### Prompt Which value of pIC50 has been reported for Cc1nsc(Nc2cncc(C(F)(F)F)n2)c1C(=O)Nc1ccc(OC2CCN(CC(F)(F)F)CC2)nc1 [Example 16] in the records?
### Response ≤ 4.70

### Prompt Reported pIC50, compound Cc1nsc(Nc2cnc3ccccc3n2)c1C(=O)Nc1cccc(NS(=O)(=O)C2CN(CC(F)F)C2)c1 [Example 286] : ____
### Response 4.85

### Prompt So what does the record say about pIC50 for Cc1nsc(Nc2cnc3ccccc3n2)c1C(=O)Nc1ccc(Oc2ccc(SC(F)(F)F)cc2)nc1 [Example 233] ?
### Response < 4.70

### Prompt So what's the measured pIC50 for this one? Cc1nsc(Nc2cnc(C(F)(F)F)cn2)c1C(=O)Nc1ccc(OC2CCN(C(CF)CF)C2)nc1 (stereo not shown) [Example 313]
### Response ≤ 4.70

### Prompt For the compound shown here, CCCN1CC[C@@H](Oc2ccc(NC(=O)c3c(C)nsc3Nc3cnc(C(F)(F)F)cn3)cn2)[C@@H](F)C1 [Example 140] , give the reported pIC50.
### Response < 4.70

### Prompt Can you look up the measured pIC50 of COc1ccc(NC(=O)c2c(C)nsc2Nc2cnc3ccccc3n2)c(CC#N)n1 [Example 235] for me?
### Response 4.92

### Prompt Reported pIC50 for Cc1nsc(Nc2cncc(C(F)(F)F)n2)c1C(=O)Nc1ccc(OCCCN)nc1 [Example 209] : what is it?
### Response < 4.70

### Prompt Which pIC50 is reported for this compound? Cc1nsc(Nc2cnc(C(F)(F)F)cn2)c1C(=O)Nc1ccc(OCCO)nc1 [Example 277]
### Response < 4.70

### Prompt pIC50 for Cc1nsc(Nc2cc(C#N)ccn2)c1C(=O)Nc1ccc(OC2CCN(C(=O)OC(C)(C)C)CC2)nc1 [Example 23] ?
### Response 4.77
